# studySystem: Sarcoplasmic/endoplasmic reticulum calcium ATPase 1 (Homo sapiens)
# Sequence (O14983 whole entry): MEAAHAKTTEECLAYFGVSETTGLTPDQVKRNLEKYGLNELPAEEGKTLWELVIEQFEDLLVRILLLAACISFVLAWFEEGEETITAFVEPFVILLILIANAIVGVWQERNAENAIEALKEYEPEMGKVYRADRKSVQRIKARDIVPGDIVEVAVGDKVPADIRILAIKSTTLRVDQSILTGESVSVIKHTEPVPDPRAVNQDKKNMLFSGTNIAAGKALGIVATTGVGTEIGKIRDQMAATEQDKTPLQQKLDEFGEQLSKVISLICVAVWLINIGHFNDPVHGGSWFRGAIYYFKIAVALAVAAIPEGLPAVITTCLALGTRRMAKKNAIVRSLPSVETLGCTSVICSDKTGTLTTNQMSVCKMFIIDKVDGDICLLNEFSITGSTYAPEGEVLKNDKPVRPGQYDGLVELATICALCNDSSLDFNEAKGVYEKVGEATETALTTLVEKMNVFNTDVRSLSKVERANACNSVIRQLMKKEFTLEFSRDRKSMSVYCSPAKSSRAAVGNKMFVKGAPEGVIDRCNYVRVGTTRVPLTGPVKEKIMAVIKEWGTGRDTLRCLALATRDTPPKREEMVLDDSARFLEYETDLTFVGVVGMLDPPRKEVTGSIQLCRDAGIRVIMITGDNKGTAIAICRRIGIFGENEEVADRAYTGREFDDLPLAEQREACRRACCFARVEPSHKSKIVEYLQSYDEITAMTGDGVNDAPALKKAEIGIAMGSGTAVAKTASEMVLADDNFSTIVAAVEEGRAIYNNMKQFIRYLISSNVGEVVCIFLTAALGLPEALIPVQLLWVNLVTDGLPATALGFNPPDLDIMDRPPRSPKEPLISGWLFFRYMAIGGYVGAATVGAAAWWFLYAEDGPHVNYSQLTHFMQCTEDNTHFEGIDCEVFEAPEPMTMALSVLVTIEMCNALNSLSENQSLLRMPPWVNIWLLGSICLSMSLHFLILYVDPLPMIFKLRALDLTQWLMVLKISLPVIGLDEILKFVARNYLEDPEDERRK
# assayProcedure: Inhibition of SERCA1a (unknown origin) ATPase activity
pKi: −log10 of the molar value.
Listed molecules paired with reported pKi

- smilesRecord: "C/C=C/C/C(C)=C\\[C@H]1C/C=C/C=C/C[C@H](C)/C=C(\\C)[C@@H](OC)C/C=C/[C@@H](O[C@@H]2O[C@H](CO)[C@@H](O)[C@H](OC)[C@H]2O)CC(=O)O1"
  pKi: 7.72
- smilesRecord: "CC(=O)C1=C(O)[C@@H]2[C@H]3c4c[nH]c5cccc(c45)C[C@H]3C(C)(C)N2C1=O"
  pKi: 5.74
- smilesRecord: "C/C=C/C/C(C)=C\\[C@H]1C/C=C/C=C/C[C@H](C)/C=C(\\C)[C@@H](OC)C/C=C/[C@@H](O)CC(=O)O1"
  pKi: 7.77
- smilesRecord: "C/C=C(/C)C(=O)O[C@H]1C(C)=C2[C@H]([C@@H]1OC(=O)CCCCCCC)[C@@](C)(OC(C)=O)C[C@H](OC(=O)CCC)[C@@]1(O)[C@H]2OC(=O)[C@@]1(C)O"
  pKi: 10.00
